Where do the numbers come from? From patent US20100216827A1.

system tested: human GPR120 (Homo sapiens)
Construct: host or cells: HEK293 cells coexpressing Gqi5
assay overview: Intracellular Ca2+ (FLIPR Calcium 4, Flexstation) assay in human GPR120 stable HEK293 cell line coexpressing Gqi5
Type: cell-based
particulars: 5 μM compound compared to the maximal activity of GW9508 at 6.7 μM (100%)
readout type: % Activity at 5 μM (%)

For orientation, consider the following solved cases.
[[record]]
molecule = "Cc1cc(COc2c(F)cc(CCC(=O)O)cc2F)n(C(C)(C)C)n1"
unit_string = "%"
test_result = 50

[[record]]
molecule = "Cc1cc(COc2c(F)cc(CC(C)C(=O)O)cc2F)n(-c2ccc(Cl)cc2)n1 (stereo not drawn)"
unit_string = "%"
test_result = 96

[[record]]
molecule = "Cc1cc(COc2ccc(CCCC(=O)O)cc2)n(-c2ccc(Cl)cc2)n1"
unit_string = "%"
test_result = 112


A: Cc1cc(COc2c(F)cc(CC(C)C(=O)O)cc2F)n(-c2ccccc2)n1 (stereo not drawn)
B: Cc1cc(C)cc(-n2nc(C)cc2COc2c(F)cc(CC(C)C(=O)O)cc2F)c1 (stereo not drawn)
Query string: Just tell me: smaller % Activity at 5 μM value, A or B ? Write the label of whichever entry you select.
Result string: B
(B: 58%, A: 91%)

A: Cc1cc(COc2ccc3c(c2)CCC3CC(=O)O)n(-c2ccc3c(c2)CCC3)n1 (stereo not drawn)
B: O=C(O)CCc1cc(F)c(OCc2ncoc2-c2ccccc2)c(F)c1
Query string: Which has the higher % Activity at 5 μM, A or B ? // caller expects the label of the chosen entry
Result string: A

----------
Each entry below lists one item and its recorded EC50 value.
system tested: human GPR120 (Homo sapiens)
Construct: host or cells: HEK293 cells coexpressing Gqi5
Sequence (Q5NUL3 1-361): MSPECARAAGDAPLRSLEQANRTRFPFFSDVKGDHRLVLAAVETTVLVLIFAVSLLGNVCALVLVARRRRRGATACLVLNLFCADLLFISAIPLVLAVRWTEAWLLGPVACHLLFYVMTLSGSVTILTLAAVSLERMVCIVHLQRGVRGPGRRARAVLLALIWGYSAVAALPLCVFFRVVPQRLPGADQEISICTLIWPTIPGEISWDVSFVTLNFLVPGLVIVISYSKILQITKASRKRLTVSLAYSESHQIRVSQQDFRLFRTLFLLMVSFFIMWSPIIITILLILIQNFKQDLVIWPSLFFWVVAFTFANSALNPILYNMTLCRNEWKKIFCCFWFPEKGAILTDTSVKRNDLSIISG
assay overview: Intracellular Ca2+ (FLIPR Calcium 4, Flexstation) assay in human GPR120 stable HEK293 cell line coexpressing Gqi5
Assay type: cell-based
particulars: human GPR120 stably expressing cells, 8 concentrations 0.00001 to 20 μM; read-out: EC50 > 10 μM
Description: Human GPR120 stable cell line was purchased from Multispan Inc (26219 Eden Landing Road, Hayward, Calif. 94545). This GPR120 cell line was generated in HEK293 cells coexpressing Gqi5. […] The concentration of intracellular Ca^2+ was measured as described below. […] Compounds were dissolved in 100% DMSO and diluted to desired concentrations with assay buffer and placed in Flexstation simultaneously with the cell plate for 20 minute incubation at 37° C. prior to reading. […]

Take a look at these entries with their results.
[[record]]
compound = "Cc1cc(COc2c(F)cc(CC(C)C(=O)O)cc2F)n(-c2ccc(C3CCCCC3)cc2)n1 (stereo not drawn)"
test_result = "> 10 µM"

[[record]]
compound = "CCc1ccc(-n2nc(C)cc2COc2ccc3c(c2)CCCC3CC(=O)O)cc1 (stereo not drawn)"
test_result = "> 10 µM"

[[record]]
compound = "Cc1cc(COc2c(F)cc(CC(C)C(=O)O)cc2F)n(-c2ccc(C(N)=O)cc2)n1 (stereo not drawn)"
test_result = "> 10 µM"

[[record]]
compound = "Cc1cc(COc2c(F)cc(CC(C)C(=O)O)cc2F)n(-c2ccccn2)n1 (stereo not drawn)"
test_result = "> 10 µM"

[[record]]
compound = "Cc1cc(COc2c(F)cc(CC(C)C(=O)O)cc2F)n(-c2ncc(Cl)cn2)n1 (stereo not drawn)"
test_result = "> 10 µM"


Now, please, on to the next compound.
Query string: Sample C[C@@H](Oc1cc(F)c(OCc2snnc2-c2ccc(Cl)cc2)c(F)c1)C(=O)O — what was its EC50?
Result string: > 10 µM

----------
system tested: human GPR120 (Homo sapiens)
Construct: host or cells: HEK293 cells coexpressing Gqi5
Sequence (Q5NUL3 1-361): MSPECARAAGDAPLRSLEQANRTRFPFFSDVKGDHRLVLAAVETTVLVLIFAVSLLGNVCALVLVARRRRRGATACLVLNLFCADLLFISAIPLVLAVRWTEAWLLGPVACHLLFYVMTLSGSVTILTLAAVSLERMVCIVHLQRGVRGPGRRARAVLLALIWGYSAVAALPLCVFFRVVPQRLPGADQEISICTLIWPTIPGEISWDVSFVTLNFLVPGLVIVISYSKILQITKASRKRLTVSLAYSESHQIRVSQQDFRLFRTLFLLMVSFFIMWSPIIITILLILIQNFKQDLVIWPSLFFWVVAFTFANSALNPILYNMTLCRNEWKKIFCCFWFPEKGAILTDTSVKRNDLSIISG
assay overview: Intracellular Ca2+ (FLIPR Calcium 4, Flexstation) assay in human GPR120 stable HEK293 cell line coexpressing Gqi5
Assay type: cell-based
particulars: 5 μM compound compared to the maximal activity of GW9508 at 6.7 μM (100%)
readout type: % Activity at 5 μM (%)

[[record]]
compound = "Cc1cc(COc2ccc(CC(C)C(=O)O)cc2C(F)(F)F)n(-c2ccc(Cl)cc2)n1 (centres unmarked)"
readout_type = "% Activity at 5 μM"
test_result = 92

[[record]]
compound = "O=C(O)CCc1cc(F)c(OCc2cc(C(F)(F)F)nn2-c2ccc(Cl)cc2)c(F)c1"
readout_type = "% Activity at 5 μM"
test_result = 71

[[record]]
compound = "COc1cc(OCc2cc(C)nn2-c2ccc(Cl)cc2)ccc1CC(C)C(=O)O (centres unmarked)"
readout_type = "% Activity at 5 μM"
test_result = 78

[[record]]
compound = "CCOC(Cc1cc(F)c(OCc2cc(C)nn2-c2ccc(Cl)cc2)c(F)c1)C(=O)O (centres unmarked)"
readout_type = "% Activity at 5 μM"
test_result = 61

[[record]]
compound = "O=C(O)C(F)(F)Cc1cc(F)c(OCc2cc(C(F)(F)F)nn2-c2ccc(Cl)cc2)c(F)c1"
readout_type = "% Activity at 5 μM"
test_result = 85

[[record]]
compound = "Cc1cc(COc2ccc(CCCC(=O)O)cc2)n(-c2ccccc2)n1"
readout_type = "% Activity at 5 μM"
test_result = 61


I: O=C(O)CCc1cc(F)c(OCc2cc(C(F)(F)F)nn2-c2ccccc2)c(F)c1
II: Cc1cc(COc2c(F)cc(C3=C(C(=O)O)CCC3)cc2F)n(-c2ccc(Cl)cc2)n1
III: O=C(O)CCC(=O)c1ccc(OCc2snnc2-c2ccc(Cl)cc2)cc1
Query string: Give the ascending ranking of the items by reported % Activity at 5 μM. State the ranking by listing the labels in the requested order.
Result string: II, III, I

----------
system tested: human GPR120 (Homo sapiens, UniProt Q5NUL3)
Construct: host or cells: HEK293 cells coexpressing Gqi5
assay overview: Intracellular Ca2+ (FLIPR Calcium 4, Flexstation) assay in human GPR120 stable HEK293 cell line coexpressing Gqi5
Format: cell-based
particulars: 5 μM compound compared to the maximal activity of GW9508 at 6.7 μM (100%)
readout type: % Activity at 5 μM (%)

1: Cc1cc(COc2c(F)cc(COCC(=O)O)cc2F)n(-c2ccc(Cl)cc2)n1
2: C[C@@H](Oc1cc(F)c(OCc2snnc2-c2ccc(Cl)cc2)c(F)c1)C(=O)O
Query string: # return whichever of 1 and 2 has the smaller % Activity at 5 μM Respond using the label that marks the chosen record.
Result string: 2
(2: 15%, 1: 86%)

A: CCCCc1ccc(-n2nc(C)cc2COc2c(F)cc(CC(C)C(=O)O)cc2F)cc1 (stereo not shown)
B: Cc1cc(COc2c(F)cc(CC(C)C(=O)O)cc2F)n(-c2ccc(C)c(Cl)c2)n1 (stereo not shown)
Query string: Could you kindly indicate whether A or B has the higher % Activity at 5 μM value? // output: label of the selected item
Result string: B

----------
system tested: human GPR120 (Homo sapiens)
Construct: host or cells: HEK293 cells coexpressing Gqi5
Sequence (Q5NUL3 1-361): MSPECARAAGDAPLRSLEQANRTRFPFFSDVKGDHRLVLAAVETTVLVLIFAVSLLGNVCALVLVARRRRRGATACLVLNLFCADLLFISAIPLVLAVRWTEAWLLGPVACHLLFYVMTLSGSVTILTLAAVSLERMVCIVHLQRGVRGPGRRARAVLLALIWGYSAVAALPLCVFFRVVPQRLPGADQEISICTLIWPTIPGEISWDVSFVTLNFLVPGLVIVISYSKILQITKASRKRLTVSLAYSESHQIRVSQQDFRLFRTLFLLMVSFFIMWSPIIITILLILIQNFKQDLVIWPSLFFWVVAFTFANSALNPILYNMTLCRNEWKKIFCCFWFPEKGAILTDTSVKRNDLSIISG
assay overview: Intracellular Ca2+ (FLIPR Calcium 4, Flexstation) assay in human GPR120 stable HEK293 cell line coexpressing Gqi5
Type: cell-based
particulars: 5 μM compound compared to the maximal activity of GW9508 at 6.7 μM (100%)
readout type: % Activity at 5 μM (%)

[[record]]
compound = "Cc1cc(COc2ccc(CC(C)C(=O)O)cc2F)n(-c2ccc(Cl)cc2)n1 (stereo not shown) [Example 108]"
readout_type = "% Activity at 5 μM"
test_result = 106

[[record]]
compound = "CCc1ccc(-n2nc(C)cc2COc2c(F)cc(CC(C)C(=O)O)cc2F)cc1 (stereo not shown) [Example 83]"
readout_type = "% Activity at 5 μM"
test_result = 88

[[record]]
compound = "CC(Cc1cc(F)c(OCc2ccnn2-c2ccc(Cl)cc2)c(F)c1)C(=O)O (stereo not shown) [Example 93]"
readout_type = "% Activity at 5 μM"
test_result = 108

[[record]]
compound = "Cc1cc(COc2ccc(CC(C)C(=O)O)cc2C)n(-c2ccc(Cl)cc2)n1 (stereo not shown) [Example 109]"
readout_type = "% Activity at 5 μM"
test_result = 114

